- Assay Text: Cytotoxicity against MDCK cells assessed as cell death incubated for 48 hrs by MTT assay
- Format: cell-based, Canis lupus familiaris
- Stated Conditions: dog
Range-based classes on measured CC50 at 48 h: L = under 7 µg/mL, M = from 7 µg/mL up to 10 µg/mL, H = 10 µg/mL and over

As a guide, the following entries are already answered.
# Structure Notation, Answer Label
rows = [
    ("CCCCCCCCCCCC[N+]12CC[N+](CCCCCCCC[N+]34CC[N+](CCCCCCCCCCCC)(CC3)CC4)(CC1)CC2", "L"),
    ("CCCCCCCCCCCC[N+]12CC[N+](Cc3cccc(C[N+]45CC[N+](CCCCCCCCCCCC)(CC4)CC5)c3)(CC1)CC2", "M"),
    ("CCCCCCCCCCCC[N+]12CC[N+](Cc3nnn(CCCCCN=[N+]=[N-])c3C[N+]34CC[N+](CCCCCCCCCCCC)(CC3)CC4)(CC1)CC2.[Cl-].[Cl-].[Cl-].[Cl-]", "H"),
    ("CCCCCCCCCCCC[N+]12CC[N+](CC#CC[N+]34CC[N+](CCCCCCCCCCCC)(CC3)CC4)(CC1)CC2", "L"),
    ("CCOC(=O)C1=C[C@@H](OC(CC)CC)[C@H](NC(C)=O)[C@@H](N)C1", "H"),
    ("CCCCCCCCCCCC[N+]12CC[N+](Cc3ccc(C[N+]45CC[N+](CCCCCCCCCCCC)(CC4)CC5)cc3)(CC1)CC2", "L"),
    ("C#CCOCCCCCN(CC[N+]12CC[N+](CCCCCCCCCCCC)(CC1)CC2)CC[N+]12CC[N+](CCCCCCCCCCCC)(CC1)CC2.[Cl-].[Cl-].[Cl-].[Cl-]", "H"),
    ("CCCCCCCCCCCC[N+]12CC[N+](CCNCC[N+]34CC[N+](CCCCCCCCCCCC)(CC3)CC4)(CC1)CC2.[Cl-].[Cl-].[Cl-].[Cl-]", "M"),
    ("CCCCCCCCCCCC[N+]12CC[N+](CCC[N+]34CC[N+](CCCCCCCCCCCC)(CC3)CC4)(CC1)CC2", "H"),
    ("CCCCCCCCCCCC[N+]12CC[N+](Cc3nnn(CCCCC(=O)OC)c3C[N+]34CC[N+](CCCCCCCCCCCC)(CC3)CC4)(CC1)CC2.[Cl-].[Cl-].[Cl-].[Cl-]", "H"),
]

In plain terms, what class is CCCCCCCCCCCC[N+]12CC[N+](CCCCC[N+]34CC[N+](CCCCCCCCCCCC)(CC3)CC4)(CC1)CC2 ?
M

Class for CCCCCCCCCCCC[N+]12CC[N+](Cc3ccccc3C[N+]34CC[N+](CCCCCCCCCCCC)(CC3)CC4)(CC1)CC2 ?
L

====

- Assay Text: Selectivity index, ratio of CC50 for HEK293T cells assessed as reduction in cell viability measured after 24 hrs by MTT assay to MIC for Escherichia coli ATCC 25922 assessed as bacterial growth inhibition by CLSI protocol based serial microdilution method
- Format: toxicity
- Stated Conditions: human, read-out: Selectivity Index
Recorded measurements of selectivity ratio at 24 h, one per entry

# Structure Notation, selectivity ratio at 24 h
records = [
    ("CCCCCCCCCCCC[N+]12CC[N+](CC#CC[N+]34CC[N+](CCCCCCCCCCCC)(CC3)CC4)(CC1)CC2", 4),
    ("CCCCCCCCCCCC[N+]12CC[N+](CCCCC[N+]34CC[N+](CCCCCCCCCCCC)(CC3)CC4)(CC1)CC2", 5),
    ("CCCCCCCCCCCC[N+]12CC[N+](Cc3cccc(C[N+]45CC[N+](CCCCCCCCCCCC)(CC4)CC5)c3)(CC1)CC2", 10),
]

// moving on: another record for selectivity ratio at 24 h
Look at this compound and give its reported selectivity ratio at 24 h. CCCCCCCCCCCC[N+]12CC[N+](CCCC[N+]34CC[N+](CCCCCCCCCCCC)(CC3)CC4)(CC1)CC2
3

====

Recorded selectivity ratio at 24 h values for a group of molecules are listed next.
- Assay Text: Selectivity index, ratio of CC50 for HEK293T cells assessed as reduction in cell viability measured after 24 hrs by MTT assay to MIC for Enterococcus faecalis ATCC 51299 assessed as bacterial growth inhibition by CLSI protocol based serial microdilution method
- Assay type: toxicity
- Stated Conditions: human, read-out: Selectivity Index
Keep the answer to the number alone.

Some solved entries appear below for comparison.
# Structure Notation, Endpoint Label, Assay Value
records = [
    ("CCCCCCCCCCCC[N+]12CC[N+](C/C=C/C[N+]34CC[N+](CCCCCCCCCCCC)(CC3)CC4)(CC1)CC2", "selectivity ratio at 24 h", 6),
    ("CCCCCCCCCCCC[N+]12CC[N+](Cc3cccc(C[N+]45CC[N+](CCCCCCCCCCCC)(CC4)CC5)c3)(CC1)CC2", "selectivity ratio at 24 h", 10),
    ("CCCCCCCCCCCC[N+]12CC[N+](CCCC[N+]34CC[N+](CCCCCCCCCCCC)(CC3)CC4)(CC1)CC2", "selectivity ratio at 24 h", 3),
]

What measured selectivity ratio at 24 h goes with CCCCCCCCCCCC[N+]12CC[N+](CC#CC[N+]34CC[N+](CCCCCCCCCCCC)(CC3)CC4)(CC1)CC2 ?
14

Can you share its selectivity ratio at 24 h? I mean this molecule: CCCCCCCCCCCC[N+]12CC[N+](CCC[N+]34CC[N+](CCCCCCCCCCCC)(CC3)CC4)(CC1)CC2
4

// lookup selectivity ratio at 24 h for CCCCCCCCCCCC[N+]12CC[N+](Cc3ccccc3C[N+]34CC[N+](CCCCCCCCCCCC)(CC3)CC4)(CC1)CC2
5

Report selectivity ratio at 24 h for CCCCCCCCCCCC[N+]12CC[N+](CCCCC[N+]34CC[N+](CCCCCCCCCCCC)(CC3)CC4)(CC1)CC2 please.
5

Param item = CCCCCCCCCCCC[N+]12CC[N+](Cc3ccc(C[N+]45CC[N+](CCCCCCCCCCCC)(CC4)CC5)cc3)(CC1)CC2 ; retrieve measured selectivity ratio at 24 h.
10

====

- Assay Text: Selectivity index, ratio of CC50 for HEK293T cells assessed as reduction in cell viability measured after 24 hrs by MTT assay to MIC for Escherichia coli ATCC 25922 assessed as bacterial growth inhibition by CLSI protocol based serial microdilution method
- Type: toxicity
- Stated Conditions: human, read-out: Selectivity Index
Listed below: selectivity ratio at 24 h values for each entry.
No unit in the answer, only the number.

Solved entries (count: 3):
# Structure Notation, Assay Value
data = [
    ("CCCCCCCCCCCC[N+]12CC[N+](Cc3ccccc3C[N+]34CC[N+](CCCCCCCCCCCC)(CC3)CC4)(CC1)CC2", 3),
    ("CCCCCCCCCCCC[N+]12CC[N+](CCC[N+]34CC[N+](CCCCCCCCCCCC)(CC3)CC4)(CC1)CC2", 4),
    ("CCCCCCCCCCCC[N+]12CC[N+](C/C=C/C[N+]34CC[N+](CCCCCCCCCCCC)(CC3)CC4)(CC1)CC2", 3),
]

// below: selectivity ratio at 24 h requested for another compound
# get_value(readout='selectivity ratio at 24 h', item= CCCCCCCCCCCC[N+]12CC[N+](Cc3ccc(C[N+]45CC[N+](CCCCCCCCCCCC)(CC4)CC5)cc3)(CC1)CC2 )
10

====

# maps each entry to its selectivity ratio at 24 h
- Assay Text: Selectivity index, ratio of CC50 for HEK293T cells assessed as reduction in cell viability measured after 24 hrs by MTT assay to MIC for Staphylococcus aureus ATCC 25923 assessed as bacterial growth inhibition by CLSI protocol based serial microdilution method
- Format: toxicity
- Stated Conditions: human, read-out: Selectivity Index
Answer with a bare number; do not write a unit.

Worked cases, selectivity ratio at 24 h given:
# Structure Notation, selectivity ratio at 24 h
measured = [
    ("CCCCCCCCCCCC[N+]12CC[N+](C/C=C/C[N+]34CC[N+](CCCCCCCCCCCC)(CC3)CC4)(CC1)CC2", 8),
    ("CCCCCCCCCCCC[N+]12CC[N+](CC#CC[N+]34CC[N+](CCCCCCCCCCCC)(CC3)CC4)(CC1)CC2", 14),
    ("CCCCCCCCCCCC[N+]12CC[N+](Cc3ccc(C[N+]45CC[N+](CCCCCCCCCCCC)(CC4)CC5)cc3)(CC1)CC2", 27),
]

Data request, read-out selectivity ratio at 24 h, for CCCCCCCCCCCC[N+]12CC[N+](Cc3cccc(C[N+]45CC[N+](CCCCCCCCCCCC)(CC4)CC5)c3)(CC1)CC2
27

What measured selectivity ratio at 24 h goes with CCCCCCCCCCCC[N+]12CC[N+](CCCCC[N+]34CC[N+](CCCCCCCCCCCC)(CC3)CC4)(CC1)CC2 ?
13

# query: selectivity ratio at 24 h of entry CCCCCCCCCCCC[N+]12CC[N+](CCC[N+]34CC[N+](CCCCCCCCCCCC)(CC3)CC4)(CC1)CC2
22

Need selectivity ratio at 24 h, item CCCCCCCCCCCC[N+]12CC[N+](Cc3ccccc3C[N+]34CC[N+](CCCCCCCCCCCC)(CC3)CC4)(CC1)CC2
7

# input compound: CCCCCCCCCCCC[N+]12CC[N+](CCCC[N+]34CC[N+](CCCCCCCCCCCC)(CC3)CC4)(CC1)CC2 ; wanted: its selectivity ratio at 24 h
7
